meta.source: patent US20180298010A1

STUDY_TARGET: PRMT5/MEP50 (Homo sapiens, UniProt O14744)
Construct: Flag-PRMT5; 6His-MEP50
Sequence (O14744 with tags, fused parts or gaps): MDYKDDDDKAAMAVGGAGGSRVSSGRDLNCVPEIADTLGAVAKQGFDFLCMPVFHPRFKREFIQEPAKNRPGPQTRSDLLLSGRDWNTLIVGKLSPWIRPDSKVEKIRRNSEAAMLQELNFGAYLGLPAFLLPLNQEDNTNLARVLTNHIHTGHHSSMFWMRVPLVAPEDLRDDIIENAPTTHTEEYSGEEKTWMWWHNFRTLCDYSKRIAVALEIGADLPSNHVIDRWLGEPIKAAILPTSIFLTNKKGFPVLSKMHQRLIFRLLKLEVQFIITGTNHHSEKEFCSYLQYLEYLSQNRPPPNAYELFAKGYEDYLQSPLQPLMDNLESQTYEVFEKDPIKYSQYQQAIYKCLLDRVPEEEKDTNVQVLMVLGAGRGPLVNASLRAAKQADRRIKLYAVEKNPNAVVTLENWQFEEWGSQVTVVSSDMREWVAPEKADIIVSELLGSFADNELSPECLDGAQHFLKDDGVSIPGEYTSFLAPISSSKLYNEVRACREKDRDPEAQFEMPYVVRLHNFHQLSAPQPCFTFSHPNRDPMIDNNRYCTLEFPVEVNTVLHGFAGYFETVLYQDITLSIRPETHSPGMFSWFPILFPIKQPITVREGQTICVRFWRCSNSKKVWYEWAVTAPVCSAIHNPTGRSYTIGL
Sequence (Q9BQA1 with tags, fused parts or gaps partner): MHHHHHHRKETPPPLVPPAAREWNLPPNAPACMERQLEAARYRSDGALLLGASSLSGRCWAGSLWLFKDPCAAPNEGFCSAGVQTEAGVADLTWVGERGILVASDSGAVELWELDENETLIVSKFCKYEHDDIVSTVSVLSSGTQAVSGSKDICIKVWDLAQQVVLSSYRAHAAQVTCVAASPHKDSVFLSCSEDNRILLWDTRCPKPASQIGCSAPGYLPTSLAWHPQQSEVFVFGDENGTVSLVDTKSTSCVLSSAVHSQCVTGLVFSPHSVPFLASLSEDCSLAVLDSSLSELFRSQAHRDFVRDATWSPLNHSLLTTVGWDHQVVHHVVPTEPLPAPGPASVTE
TEST: PRMT5 Biochemical Assay (PRMT5/MEP50 enzyme assay on peptide substrate, 3H-SAM Flashplate)

{"columns": ["COMPOUND", "STUDY_TARGET", "IC50"],
 "data": [
  ["OC(COc1cccc(-c2ccc3ncn(C4CNC4)c3c2)c1)CN1CCc2ccccc2C1 (stereo not shown)", "PRMT5/MEP50 (Homo sapiens, UniProt O14744)", "101 to 1000 nM"],
  ["COc1cccc2c1CN(CC(O)COc1cccc(CNC3CCCC3)c1)CC2 (stereo not shown)", "PRMT5/MEP50 (Homo sapiens, UniProt O14744)", "10000 to 40000 nM"],
  ["CC(C)(C)OC(=O)N1CCCC(OCC(O)CN2CCc3ccccc3C2)C1 (stereo not shown)", "PRMT5/MEP50 (Homo sapiens, UniProt O14744)", "1000 to 10000 nM"],
  ["OC(COc1cccc(-c2ccc3ncn(C4CCOCC4)c3c2)c1)CN1CCc2ccccc2C1 (stereo not shown)", "PRMT5/MEP50 (Homo sapiens, UniProt O14744)", "101 to 1000 nM"]
]}

----------
STUDY_TARGET: PRMT5/MEP50 (Homo sapiens)
Construct: Flag-PRMT5; 6His-MEP50
TEST: PRMT5 Biochemical Assay (PRMT5/MEP50 enzyme assay on peptide substrate, 3H-SAM Flashplate)
pIC50: −log10 of the molar value.
This listing pairs compounds with measured pIC50.

{"columns": ["COMPOUND", "pIC50"],
 "data": [
  ["OC(COc1cccc(C2=CCCCC2)c1)CN1CCc2ccccc2C1 (stereo not drawn)", "5.00 to 6.00"],
  ["Cn1ccc2ccc(-c3cc(NCC(O)CN4CCc5ccccc5C4)ncn3)cc21 (stereo not drawn)", "6.00 to 7.00"],
  ["CN(C(=O)c1cnco1)c1cccc(OCC(O)CN2CCc3ccccc3C2)c1 (stereo not drawn)", "5.00 to 6.00"],
  ["CNC(=O)c1cncc(-c2cccc(OCC(O)CN3CCc4ccccc4C3)c2)c1 (stereo not drawn)", "5.00 to 6.00"],
  ["Cn1ccc(C(=O)Nc2cccc(OCC(O)CN3CCc4ccccc4C3)c2)n1 (stereo not drawn)", "5.00 to 6.00"],
  ["O=C(Nc1cccnc1)c1cccc(OCC(O)CN2CCc3ccccc3C2)c1 (stereo not drawn)", "5.00 to 6.00"],
  ["OC(COc1cccc(-c2cc(Cl)cc(C(F)(F)F)c2)c1)CN1CCc2ccccc2C1 (stereo not drawn)", "5.00 to 6.00"],
  ["OC(COC1CCN(Cc2ccccc2)CC1)CN1CCc2ccccc2C1 (stereo not drawn)", "5.00 to 6.00"],
  ["OC(COc1ccc(-c2ccn[nH]2)cc1)CN1CCc2ccccc2C1 (stereo not drawn)", "5.00 to 6.00"],
  ["OC(COc1cccc(-c2cc(C(F)(F)F)ccc2Cl)c1)CN1CCc2ccccc2C1 (stereo not drawn)", "6.00 to 7.00"],
  ["OC(COc1cccc(-c2ccc3nn[nH]c3c2)c1)CN1CCc2ccccc2C1 (stereo not drawn)", "6.00 to 7.00"],
  ["OC(COc1cccc(-c2ccc3nc[nH]c3c2)c1)CN1CCc2ccccc2C1 (stereo not drawn)", "6.00 to 7.00"],
  ["CN1CCN(c2ccc(-c3cccc(OCC(O)CN4CCc5ccccc5C4)c3)cn2)CC1 (stereo not drawn)", "6.00 to 7.00"],
  ["CS(=O)(=O)c1cccc(-c2cccc(OCC(O)CN3CCc4ccccc4C3)c2)c1 (stereo not drawn)", "6.00 to 7.00"],
  ["CC(Oc1cccc(CNC2CCCC2)c1)C(O)CN1CCc2ccccc2C1 (stereo not drawn)", "6.00 to 7.00"],
  ["COc1ccc(-c2cccc(OCC(O)CN3CCc4ccccc4C3)c2)cc1Cl (stereo not drawn)", "6.00 to 7.00"],
  ["O=C1COc2ccc(-c3cccc(OCC(O)CN4CCc5ccccc5C4)c3)cc2N1 (stereo not drawn)", "6.00 to 7.00"],
  ["OC(COc1cccc(-c2ccc(C(F)(F)F)cc2)c1)CN1CCc2ccccc2C1 (stereo not drawn)", "5.00 to 6.00"]
]}
